- System: HCC-2998 colon
- experimentalProtocol: NCI-60 one-dose screen, 48 h (100 = growth as untreated, 0 = no growth, -100 = all killed)
- conditionParameters: 10 µM unless noted
This is part of a sample that, as a whole, favours compounds with a hit. Of some 83,000 tested, about 20% had one in any assay.
I'd appreciate it if you could supply growth values for the items below.
Give bare numbers, in %.

Example results:
# molecule, assayEndpoint, resultUnits, recordedMeasurement
measured = [
    ("O=C(Cc1ccc([N+](=O)[O-])cc1)Oc1ccccc1", "growth", "%", 106),
    ("C/C(=N\\Nc1ccc([N+](=O)[O-])cn1)c1ccc(N)cc1", "growth", "%", 102),
    ("C(=Nc1ccc(-c2ccc(N=Cc3ccccc3)cc2)cc1)c1ccccc1", "growth", "%", 110),
]

// for each molecule below, give its growth
1. CC(=O)O[C@@H]1CC2C(C)(C)CCCC2(C)C2=C1C(=O)C(C(C)C)=CC2=O (stereo not given in full)
2. COc1cccc(C2C(C#N)=C(N)Oc3cc4c(cc32)OCO4)c1 (stereo not given)

[-60, 21.8]
